# reported GI50; entries follow
# Test system: HOP-62 NSCLC
# PROTOCOL_TEXT: NCI tumour cell line growth inhibition, 48 h

Previously resolved entries follow.
INSERT INTO assay_data (compound, value_kind, recorded_result) VALUES
  ('Cc1ccc(-c2cc(C(Cl)Cl)on2)cc1', 'GI50', '95.5 µM'),
  ('COc1ccc(-c2nn3ncccc3c2-c2ccnc(Nc3cccc(C(F)(F)F)c3)n2)cc1', 'GI50', '16.8 µM'),
  ('N#Cc1c(-c2ccc(Cl)cc2)csc1NC(=O)Nc1cccc(C(F)(F)F)c1', 'GI50', '2.33 µM'),
  ('NC(=O)c1c(NC(=O)c2cccc(C(F)(F)F)c2)sc2c1CCC(=O)C2', 'GI50', '3.06 µM'),
  ('COc1ccc2c(c1)c(-c1cc(-c3cn(C)c4ccc(OC)cc34)[nH]n1)cn2C', 'GI50', '> 100 µM'),
  ('COc1ccc2nc3cc(Cl)ccc3c(Nc3ccc(O)c(CN4CCCC4)c3)c2c1', 'GI50', '2.14 µM'),
  ('C=C1C(=O)C23CC1CCC2C12CO[C@@]3(O)[C@@H](O)C1C(C)(C)C=CC2=O (stereo not given in full)', 'GI50', '25.2 µM'),
  ('Cc1nc2cc(Nc3nc(Nc4ccc(F)cc4)nc(-c4ccc(Cl)cc4)n3)ccc2n1Cc1ccccc1', 'GI50', '7.36 µM');

What value of GI50 has been reported for the following compound? `O=c1c2ccccc2c(=O)c2c1sc1c(=O)c3ccc(O)cc3c(=O)c12`
0.15 µM

Another compound to look at: `Fc1ccc(-c2cc(-c3cn[nH]c3-c3ccccn3)ccn2)cc1`
> 25 µM

What about this compound? `COc1cc(/C=C2\C(=O)Nc3ccc(Br)cc32)cc(OC)c1OC`
20.3 µM

----------
# System: PC-3 prostate
# PROTOCOL_TEXT: NCI tumour cell line growth inhibition, 48 h
VALUE_KIND: GI50

Please review the following examples before continuing.
INSERT INTO results (compound, system, recorded_result) VALUES
  ('CN1CCN(CCCOc2ccc3ncnc(Nc4ccc(Oc5cccc(F)c5)c(Cl)c4)c3c2)CC1', 'PC-3 prostate', '1680 nM'),
  ('C/C(=N\O)[C@H]1CC[C@@]2(C)[C@@H]3CC[C@H]4C(C)(C)/C(=N/O)CC[C@@]45CC35CC[C@]12C (stereo partly drawn)', 'PC-3 prostate', '2330 nM');

Read the next record carefully.
Requested read-out: GI50. Entry: `CC[C@H](C)[C@H](NC(=O)N[C@@H](C)c1ccccc1)C(=O)N(C)[C@H](C[C@@H](OC(C)=O)c1nc(C(=O)N[C@@H](Cc2ccccc2)C[C@H](C)C(=O)OC)cs1)C(C)C`
27500 nM

----------
# Test system: CCRF-CEM leukemia
# PROTOCOL_TEXT: NCI tumour cell line growth inhibition, 48 h
VALUE_KIND: TGI (µM)
Express the result in µM but write the number alone.

INSERT INTO assay_data (compound, unit_tag, recorded_result) VALUES
  ('C#CCn1cc(C=C2C(=O)NC(=S)NC2=O)c2cc(Cl)ccc21', 'µM', 6.45),
  ('CCCC/C=C1\CCC(CN2CCCC2)C1=O (centres undefined)', 'µM', 25),
  ('CN1C2CCC1C(CO)C(=O)C2 (centres undefined)', 'µM', 27.4);

Now take the following compound into account.
Hello, I am looking for reported TGI with CCRF-CEM leukemia for `O=C1Nc2ccc(Br)cc2C1=Nc1ccc(Cl)cc1` . Could you help?
51.9

----------
This section presents molecules with their documented TGI values.
# Tested on: U251 CNS
# PROTOCOL_TEXT: NCI tumour cell line growth inhibition, 48 h
Report only the number, with the unit µM understood.

Check out these entries, answers already filled in.
INSERT INTO results (molecule, value_kind, unit_tag, recorded_result) VALUES
  ('N#CC1=C(N)NC(=S)C(C#N)C12Nc1ccccc1S2 (stereo not drawn)', 'TGI', 'µM', 40.2),
  ('COC12C=C/C(=C(/C(=O)OCc3csc(SC)n3)C(=O)CCCCCCCCC3(OC)C=C/C(=C(/C(=O)OCc4cnc(SC)s4)C(=O)CCCCCCCC1)O3)O2 (stereo not drawn)', 'TGI', 'µM', 43.6),
  ('COC(=O)C1=C(C(=O)OC)C(C(=O)OC)C(C(=O)OC)C(C(=O)OC)(C(=O)OC)C(C(=O)OC)=C1C(=O)OC (stereo not drawn)', 'TGI', 'µM', 31);

Let us examine a further case.
What value of TGI has been reported for the following molecule? CC1OC2OC3C(OCC(O)C3O)OC(=O)[C@]34CCC(C)(C)CC3C3=CCC5[C@@]6(C)C[C@H](O)[C@H](OC7OC(CO)C(O)C(O)C7OC7OC(COC(=O)CC(C)(O)CC(=O)OC1C(OC1OC(CO)C(O)C(O)C1O)C2O)C(O)C(O)C7O)[C@@](C)(CO)C6CC[C@@]5(C)[C@]3(C)CC4 (stereo partly drawn)
9.26

----------
Below is a list of entries, each paired with its recorded TGI value.
# System: RXF 393 renal
# PROTOCOL_TEXT: NCI tumour cell line growth inhibition, 48 h
# unit: µM | format: bare number

Worked set:
INSERT INTO measurements (compound, value_kind, unit_tag, recorded_result) VALUES
  ('COc1ccc2c(c1)CCC(CN1CCN(CCOC(c3ccccc3)c3ccccc3)CC1)C2O (stereo unspecified)', 'TGI', 'µM', 29.3),
  ('O=C1c2cc3c(cc2-c2c1c1cc(F)c(F)cc1c(=O)n2C[C@H](O)CO)OCO3', 'TGI', 'µM', 0.335),
  ('CN(C)CN1C(=O)/C(=N\n2c(-c3ccncc3)n[nH]c2=S)c2ccccc21', 'TGI', 'µM', 32.4),
  ('CC(=O)OC1Oc2cc(C)c(C)cc2-c2oc(=O)c(-c3ccccc3)cc21 (stereo unspecified)', 'TGI', 'µM', 37.1),
  ('CN1CCN(CCCOc2ccc3ncnc(Nc4ccc(Oc5cccc(F)c5)c(Cl)c4)c3c2)CC1', 'TGI', 'µM', 3.1);

Any idea what its TGI is? The compound is Cc1ccc(S(=O)c2ccc([N+](=O)[O-])c3nonc23)cc1 (stereo unspecified)
5.53

----------
# System: SK-MEL-5 melanoma
# PROTOCOL_TEXT: NCI tumour cell line growth inhibition, 48 h
Catalogue of compounds with associated TGI

INSERT INTO measurements (compound, recorded_result) VALUES
  ('O=C(O)Cn1c[n+](NC(=O)Cc2ccccc2)cn1', '> 10 µM'),
  ('Cc1ccc(N2C(=O)/C(=C3\Sc4c(nc(C)n(C)c4=O)N3c3ccccc3)SC2=S)cc1', '> 100 µM'),
  ('CN1C2CCC1C(CO)C(=O)C2 (stereo not drawn)', '> 100 µM'),
  ('Fc1ccc(OCc2ccc3nc(-c4ccccc4)c(Cl)nc3c2)cc1', '> 100 µM');

Item: `O=c1n(CCCN2CCOCC2)nc2n1-c1ccc3ccccc3c1SC2` Test system: SK-MEL-5 melanoma Read-out: TGI Value: ?
47.7 µM

Try this compound next: CC(=O)OC1Oc2cc(C)c(C)cc2-c2oc(=O)c(-c3ccccc3)cc21 (stereo not drawn)
4.06 µM

----------
# Test system: MDA-MB-231 breast
# PROTOCOL_TEXT: NCI tumour cell line growth inhibition, 48 h
The molecules listed here are annotated with their TGI.

What value of measured TGI is listed for Cc1ccc(S(=O)c2ccc([N+](=O)[O-])c3nonc23)cc1 (stereo unspecified) ?
22.6 µM

Another molecule to check: C=C1C[C@@H]2CC[C@@]34CC5O[C@H]6C(O[C@H]7CC[C@H](CC(=O)O[C@@H]8[C@@H](C)[C@@H]9O[C@@H]%10C[C@]%11(C[C@@H]%12O[C@]%13(C[C@H](C)[C@@H]%14O[C@@H]%15CC(C(COC(C)=O)OC(C)=O)O[C@@H]%15C[C@@H]%14O%13)C[C@H](C)[C@@H]%12O%11)O[C@@H]%10C[C@@H]9O[C@H]8CC8O[C@@H](CC[C@@H]1O2)C[C@@H](C)C8(O)CO)O[C@@H]7[C@@H]6O3)[C@H]5O4 (stereo partly specified)
> 1 µM

Moving on to Cc1ccc(NCCNCC(O)CO)c2c(=O)c3ccccc3sc12 (stereo unspecified)
3 µM

----------
# Test system: T-47D breast
# PROTOCOL_TEXT: NCI tumour cell line growth inhibition, 48 h; in the data active means GI50 below about 0.43 µM; inactive means the rest
Please answer using one outcome listed in T = active, F = inactive

The following compounds have reported results that may help.
INSERT INTO measurements (compound, category) VALUES
  ('COc1ccc(-c2nn(-c3cccc(Cl)c3)cc2/C=C2\C(=N)N(c3ccccc3)N=C2N)cc1', 'F'),
  ('O=C(Nc1nc2ccc(F)cc2s1)c1cccnc1Nc1ccc(Cl)cc1Cl', 'F'),
  ('N#CC1=C(N)NC(=S)C(C#N)C12Nc1ccccc1S2 (stereo not given)', 'F'),
  ('CCn1c(-c2nonc2N)nc2c(C#CC(C)(C)O)ncc(OC[C@@H]3CCCN3)c21', 'T'),
  ('COc1ccc(-c2nn(-c3cccc(Cl)c3)cc2-c2cc(-c3cccs3)no2)cc1', 'F'),
  ('COc1ccc2c(c1)c(-c1cc(-c3cn(C)c4ccc(OC)cc34)[nH]n1)cn2C', 'F');

Fill in: this test's call for `CN1CCN(CCCOc2ccc3ncnc(Nc4ccc(Oc5cccc(F)c5)c(Cl)c4)c3c2)CC1` is ___
F

Moving on to `NC(=O)c1c(NC(=O)c2cccc(C(F)(F)F)c2)sc2c1CCC(=O)C2`
T

Try O=C1C2=C(Nc3cc([N+](=O)[O-])ccc3N2)OC1c1ccc(C2OC3=C(Nc4ccc([N+](=O)[O-])cc4N3)C2=O)cc1 (stereo not given) next.
F

Please do the same for `Cc1cc(C(=O)Nc2cc(Nc3ncccc3-c3ncnc4nc[nH]c34)ccc2F)cc(C(C)(C)C#N)c1` as well.
F

What about this compound? `COc1ccc(CNC(=O)c2ccc(-c3cc(-c4nnc(C)o4)ccc3C)cc2)cc1`
F

How about CC(=O)OC1Oc2cc(C)c(C)cc2-c2oc(=O)c(-c3ccccc3)cc21 (stereo not given) ?
T
